molecular target: Sodium channel protein type 9 subunit alpha (Homo sapiens, UniProt Q15858); test: Inhibition of human Nav1.7 expressed in HEK293 cells assessed as inhibition of peak current after 50 secs by automated patch clamp assay
Sequence (Q15858 whole entry): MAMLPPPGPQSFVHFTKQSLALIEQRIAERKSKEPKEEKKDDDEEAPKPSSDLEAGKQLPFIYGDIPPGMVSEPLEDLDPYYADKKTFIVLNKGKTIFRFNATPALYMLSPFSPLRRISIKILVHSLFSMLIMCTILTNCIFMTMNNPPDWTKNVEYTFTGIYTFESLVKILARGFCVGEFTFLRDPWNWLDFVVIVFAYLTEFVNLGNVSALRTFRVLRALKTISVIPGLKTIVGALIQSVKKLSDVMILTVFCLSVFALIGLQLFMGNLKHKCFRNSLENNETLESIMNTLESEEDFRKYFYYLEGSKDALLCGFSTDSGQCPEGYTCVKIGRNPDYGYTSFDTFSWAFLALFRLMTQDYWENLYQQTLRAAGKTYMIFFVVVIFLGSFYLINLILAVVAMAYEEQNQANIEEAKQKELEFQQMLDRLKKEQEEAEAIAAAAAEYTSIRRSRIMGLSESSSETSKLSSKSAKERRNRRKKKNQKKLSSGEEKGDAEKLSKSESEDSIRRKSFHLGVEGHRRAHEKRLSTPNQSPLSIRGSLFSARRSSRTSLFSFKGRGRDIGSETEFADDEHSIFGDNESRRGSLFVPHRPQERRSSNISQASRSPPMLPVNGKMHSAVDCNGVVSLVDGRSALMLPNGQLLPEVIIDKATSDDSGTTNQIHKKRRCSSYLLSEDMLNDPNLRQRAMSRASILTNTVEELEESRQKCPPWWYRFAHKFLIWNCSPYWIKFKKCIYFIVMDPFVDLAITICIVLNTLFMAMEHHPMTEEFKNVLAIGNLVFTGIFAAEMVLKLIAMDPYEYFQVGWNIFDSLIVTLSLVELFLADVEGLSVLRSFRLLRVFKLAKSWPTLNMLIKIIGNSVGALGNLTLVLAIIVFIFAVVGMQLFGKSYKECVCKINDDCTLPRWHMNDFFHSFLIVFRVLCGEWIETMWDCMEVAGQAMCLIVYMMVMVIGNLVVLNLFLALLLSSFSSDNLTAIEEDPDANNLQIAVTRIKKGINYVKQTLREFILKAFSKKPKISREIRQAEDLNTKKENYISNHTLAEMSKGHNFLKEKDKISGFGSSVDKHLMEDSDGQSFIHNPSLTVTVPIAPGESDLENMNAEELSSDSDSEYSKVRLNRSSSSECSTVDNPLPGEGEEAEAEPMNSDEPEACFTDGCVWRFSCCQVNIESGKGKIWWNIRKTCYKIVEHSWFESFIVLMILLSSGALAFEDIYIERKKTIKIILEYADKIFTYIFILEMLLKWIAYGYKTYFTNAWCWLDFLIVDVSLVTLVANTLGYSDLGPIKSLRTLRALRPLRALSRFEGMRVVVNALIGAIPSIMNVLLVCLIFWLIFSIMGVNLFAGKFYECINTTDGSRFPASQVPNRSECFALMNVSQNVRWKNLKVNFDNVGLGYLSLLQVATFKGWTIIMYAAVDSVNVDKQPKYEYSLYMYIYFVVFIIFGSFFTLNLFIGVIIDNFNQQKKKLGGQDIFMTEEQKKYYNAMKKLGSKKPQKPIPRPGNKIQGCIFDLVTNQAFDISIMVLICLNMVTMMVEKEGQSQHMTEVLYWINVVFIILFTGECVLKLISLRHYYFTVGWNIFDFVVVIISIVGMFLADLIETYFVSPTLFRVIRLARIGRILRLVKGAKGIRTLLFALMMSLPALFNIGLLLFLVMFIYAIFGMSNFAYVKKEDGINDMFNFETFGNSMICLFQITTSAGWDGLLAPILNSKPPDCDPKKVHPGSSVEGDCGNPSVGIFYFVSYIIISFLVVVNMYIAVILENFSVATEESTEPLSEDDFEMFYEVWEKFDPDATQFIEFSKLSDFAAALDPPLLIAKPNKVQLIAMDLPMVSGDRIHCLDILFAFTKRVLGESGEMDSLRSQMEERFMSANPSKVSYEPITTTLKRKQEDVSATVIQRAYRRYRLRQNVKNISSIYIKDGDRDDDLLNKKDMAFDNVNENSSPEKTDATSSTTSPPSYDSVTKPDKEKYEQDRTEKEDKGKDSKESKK
In this section, each of the compounds is paired with its reported IC50.
# output: bare number, implied unit nM

Query: I am curious: what IC50 value has been reported for `Cc1ccccc1-c1ccc2c(c1)c(F)nn2-c1cc(F)c(C(=O)NS(C)(=O)=O)cc1Cl` ?
Reply: 60

Query: Bench note: what IC50 did `CS(=O)(=O)NC(=O)c1cc(Cl)c(-n2nc(Cl)c3cc(-c4ccc(Cl)c(F)c4)ccc32)cc1F` show?
Reply: 80

Query: Entry under review: `Cc1cccc(-c2ccc3c(c2)c(F)nn3-c2cc(F)c(C(=O)NS(C)(=O)=O)cc2Cl)c1` . Reported IC50?
Reply: 80

Query: IC50 lookup needed for `CS(=O)(=O)NC(=O)c1cc(Cl)c(-n2nc(Cl)c3cc(-c4cc(F)c(F)c(F)c4)ccc32)cc1F` , thanks.
Reply: 20
